Value source: the supplement of paper PMC10724198

- System: Saccharomyces cerevisiae;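 further: PSI is a weighted mean of sequencing reads over stability bins, variants kept only with over 10 reads, mCherry proximal and sfGFP distal, peptide attached via GGGS linker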
- method_summary: protein stability index of tFT-peptide fusion (C-terminal peptide) (PSI (0-1 scale)); higher = more stable (slower turnover)
- measurement_context: genetic background: wild type; temperature: 30 C
# Lookup of reported protein stability index keyed by entry
recorded_metric: protein stability index

>>> test_result("LSLGSSATLTFQ")
0.698
>>> test_result("SIGAGSSGVGQE")
0.685
>>> test_result("GVGSGNMEEEGQ")
0.679
>>> test_result("GRLLRVSCHGVS")
0.701
>>> test_result("ILLFLRCFSGFF")
0.562
>>> test_result("PSLPLPPPPAHP")
0.65
>>> test_result("PPPFRTPPSRRP")
0.739
>>> test_result("SISYSNLPSLFF")
0.75
>>> test_result("PPSPSPLPHSSP")
0.676
>>> test_result("AGSSLVVAWHGV")
0.673
>>> test_result("VFRFCCQTGALR")
0.671
>>> test_result("QVGPSPCHPFTL")
0.684
